Test system: A549/ATCC
EXPERIMENT NOTES: cells
Format: cell-based
CONDITION SET: A549/ATCC (Non-Small Cell Lung Cancer), 10 μM, 48 hours
RESULT TYPE: growth percentage
Units required after the number.

# example entries with known answers
>>> print(df.to_string())
                               input_smiles  assay_value
0  O=C1c2cc(Cl)ccc2-c2c(N3CCOCC3)nc3ccccc3c21      101.47%
1  O=C1c2cc(Cl)ccc2-c2c(N3CCN(c4ccccc4)CC3)nc3ccccc3c21       90.89%
2  COc1cccc(N2CCN(c3nc4ccccc4c4c3-c3ccc(Cl)cc3C4=O)CC2)c1      101.22%
3     CN(C)c1nc2ccccc2c2c1-c1ccc(Cl)cc1C2=O       98.85%
4        COc1nc2ccccc2c2c1-c1ccc(Cl)cc1C2=O       99.70%

Here are 6 compounds. What values of growth percentage were reported for them?
1. CN1CCN(c2nc3ccccc3c3c2-c2ccc(Cl)cc2C3=O)CC1
2. CNc1nc2ccccc2c2c1-c1ccc(Cl)cc1C2=O
3. CCN(CC)CCNc1nc2ccccc2c2c1-c1ccc(Cl)cc1C2=O
4. O=C1c2cc(Cl)ccc2-c2c(SCCO)nc3ccccc3c21
5. O=C1c2cc(Cl)ccc2-c2c(Cl)nc3ccccc3c21
6. O=C1c2cc(Cl)ccc2-c2c(N3CCN(C(=O)N4CCCCC4)CC3)nc3ccccc3c21

Response:
["96.43%", "96.83%", "51.79%", "76.42%", "108.98%", "99.12%"]
